# assay.target: Gamma-secretase
# protocol.description: Inhibition of gamma secretase in CHO cells expressing human APP after 4 hrs by ELISA
# Format: cell-based
pIC50: −log10 of the molar value.
reported.metric: pIC50

>>> quantitative_result("COC(=O)[C@H](CC(C)C)NC(=O)[C@H](CC(C)C)NC(=O)N(Cc1ccccc1)C[C@@H](O)[C@H](Cc1ccccc1)NC(=O)OC(C)(C)C")
6.22

(1) CC(C)C[C@H](NC(=O)N(Cc1ccccc1)C[C@@H](O)[C@H](Cc1ccccc1)NC(=O)OC(C)(C)C)C(=O)N[C@H](CC(C)C)C(=O)OC(C)(C)C
(2) COC(=O)[C@H](NC(=O)[C@@H](CC(C)C)NC(=O)N(Cc1ccccc1)C[C@@H](O)[C@@H](Cc1ccccc1)NC(=O)OC(C)(C)C)C(C)C
Quick one: lower pIC50, 1 or 2 ? Respond using the label that marks the chosen record.
2
(2: 5.70, 1: 6.40)

(1) COC(=O)[C@@H](NC(=O)[C@H](CC(C)C)NC(=O)N(Cc1ccccc1)C[C@@H](O)[C@H](Cc1ccccc1)NC(=O)OC(C)(C)C)C(C)C
(2) COC(=O)[C@@H](CC(C)C)NC(=O)[C@@H](CC(C)C)NC(=O)N(Cc1ccccc1)C[C@@H](O)[C@@H](Cc1ccccc1)NC(=O)OC(C)(C)C
Endpoint returns the identifier whose pIC50 is numerically larger, either 1 or 2 . Respond using the label that marks the chosen record.
1
(1: 6.40, 2: 5.52)

(P) CC(C)C[C@H](NC(=O)N(Cc1ccccc1)C[C@@H](O)[C@H](Cc1ccccc1)NC(=O)OC(C)(C)C)C(=O)N[C@H](C(=O)OC(C)(C)C)C(C)C
(Q) CC(C)C[C@H](NC(=O)[C@@H](CC(C)C)NC(=O)N(Cc1ccccc1)C[C@@H](O)[C@@H](Cc1ccccc1)NC(=O)OC(C)(C)C)C(=O)OC(C)(C)C
(R) CC(C)C[C@@H](NC(=O)N(Cc1ccccc1)C[C@@H](O)[C@@H](Cc1ccccc1)NC(=O)OC(C)(C)C)C(=O)N[C@@H](C(=O)OC(C)(C)C)C(C)C
Arrange these compounds by their pIC50, starting with the largest number. // respond by listing labels in the order requested
P, Q, R

---

# assay.target: Gamma-secretase
# protocol.description: Inhibition of gamma secretase isolated from HeLa cells by ELISA
# Assay type: cell-free, Homo sapiens
reported.metric: IC50 (µM)

>>> quantitative_result("COC(=O)[C@H](NC(=O)[C@@H](CC(C)C)NC(=O)N(C[C@@H](O)[C@@H](Cc1ccccc1)NC(=O)OC(C)(C)C)C(C)C)C(C)C")
4

(1) COC(=O)[C@H](NC(=O)[C@@H](Cc1ccccc1)NC(=O)N(Cc1ccccc1)C[C@@H](O)[C@@H](Cc1ccccc1)NC(=O)OC(C)(C)C)C(C)C
(2) COC(=O)[C@H](NC(=O)[C@@H](CC(C)C)NC(=O)N(Cc1ccccc1)C[C@@H](O)[C@@H](Cc1ccccc1)NC(=O)[C@H](NC(=O)OC(C)(C)C)C(C)C)C(C)C
Endpoint returns the identifier whose IC50 is numerically larger, either 1 or 2 . Respond using the label that marks the chosen record.
1
(1: 9 µM, 2: 3 µM)

---

# assay.target: Gamma-secretase
# protocol.description: Inhibition of gamma secretase in CHO cells expressing human APP after 24 hrs by ELISA
# Format: cell-based
reported.metric: IC50 (µM)

Known results for molecules:
>>> quantitative_result("COC(=O)[C@H](CC(C)C)NC(=O)[C@H](CC(C)C)NC(=O)N(Cc1ccccc1)C[C@@H](O)[C@H](Cc1ccccc1)NC(=O)OC(C)(C)C")
9.4
>>> quantitative_result("COC(=O)[C@H](NC(=O)[C@@H](CC(C)C)NC(=O)N(Cc1ccccc1)C[C@@H](O)[C@@H](Cc1ccccc1)NC(=O)OC(C)(C)C)C(C)C")
17
>>> quantitative_result("CC(C)C[C@H](NC(=O)N(Cc1ccccc1)C[C@@H](O)[C@H](Cc1ccccc1)NC(=O)OC(C)(C)C)C(=O)N[C@H](CC(C)C)C(=O)OC(C)(C)C")
5

(1) CC(C)C[C@H](NC(=O)N(Cc1ccccc1)C[C@@H](O)[C@H](Cc1ccccc1)NC(=O)OC(C)(C)C)C(=O)N[C@H](C(=O)OC(C)(C)C)C(C)C
(2) COC(=O)[C@@H](NC(=O)[C@H](CC(C)C)NC(=O)N(Cc1ccccc1)C[C@@H](O)[C@H](Cc1ccccc1)NC(=O)OC(C)(C)C)C(C)C
Quick one: lower IC50, 1 or 2 ? Respond using the label that marks the chosen record.
1
(1: 6 µM, 2: 18 µM)

---

# assay.target: Gamma-secretase
# protocol.description: Inhibition of gamma secretase in CHO cells expressing human APP after 24 hrs by ELISA
# Type: cell-based
reported.metric: IC50 (µM)

>>> quantitative_result("CC(C)C[C@H](NC(=O)[C@@H](CC(C)C)NC(=O)N(Cc1ccccc1)C[C@@H](O)[C@@H](Cc1ccccc1)NC(=O)OC(C)(C)C)C(=O)OC(C)(C)C")
7

(I) CC(C)C[C@@H](NC(=O)N(Cc1ccccc1)C[C@@H](O)[C@@H](Cc1ccccc1)NC(=O)OC(C)(C)C)C(=O)N[C@@H](C(=O)OC(C)(C)C)C(C)C
(II) COC(=O)[C@@H](CC(C)C)NC(=O)[C@@H](CC(C)C)NC(=O)N(Cc1ccccc1)C[C@@H](O)[C@@H](Cc1ccccc1)NC(=O)OC(C)(C)C
Endpoint returns the identifier whose IC50 is numerically larger, either I or II . Respond using the label that marks the chosen record.
II

---

# assay.target: Gamma-secretase
# protocol.description: Inhibition of gamma secretase in CHO cells expressing human APP by ELISA
# Assay type: cell-based
reported.metric: IC50 (µM)

Known results for compounds:
>>> quantitative_result("COC(=O)[C@H](CC(C)C)NC(=O)[C@H](CC(C)C)NC(=O)N(Cc1ccccc1)C[C@@H](O)[C@H](Cc1ccccc1)NC(=O)OC(C)(C)C")
0.6
>>> quantitative_result("COC(=O)[C@H](NC(=O)[C@@H](CC(C)C)NC(=O)N(C[C@@H](O)[C@@H](Cc1ccccc1)NC(=O)OC(C)(C)C)C(C)C)C(C)C")
8
>>> quantitative_result("COC(=O)[C@@H](CC(C)C)NC(=O)[C@@H](CC(C)C)NC(=O)N(Cc1ccccc1)C[C@@H](O)[C@@H](Cc1ccccc1)NC(=O)OC(C)(C)C")
3
>>> quantitative_result("COC(=O)[C@H](NC(=O)[C@@H](CC(C)C)NC(=O)N(C)C[C@@H](O)[C@@H](Cc1ccccc1)NC(=O)OC(C)(C)C)C(C)C")
12
>>> quantitative_result("COC(=O)[C@H](NC(=O)[C@@H](CC(C)C)NC(=O)N(Cc1ccccc1)C[C@H](O)[C@@H](Cc1ccccc1)NC(=O)OC(C)(C)C)C(C)C")
10
>>> quantitative_result("COC(=O)[C@@H](NC(=O)[C@H](CC(C)C)NC(=O)N(Cc1ccccc1)C[C@@H](O)[C@H](Cc1ccccc1)NC(=O)OC(C)(C)C)C(C)C")
0.4
>>> quantitative_result("COC(=O)[C@H](NC(=O)[C@H](CC(C)C)NC(=O)N(Cc1ccccc1)C[C@@H](O)[C@H](Cc1ccccc1)NC(=O)OC(C)(C)C)C(C)C")
1
>>> quantitative_result("COC(=O)[C@@H](NC(=O)[C@@H](CC(C)C)NC(=O)N(Cc1ccccc1)C[C@@H](O)[C@@H](Cc1ccccc1)NC(=O)OC(C)(C)C)C(C)C")
8
>>> quantitative_result("COC(=O)[C@H](NC(=O)[C@@H](CC(C)C)NC(=O)N(Cc1ccccc1)C[C@@H](O)[C@@H](Cc1ccccc1)NC(=O)[C@@H](C)NC(=O)OC(C)(C)C)C(C)C")
30
>>> quantitative_result("COC(=O)[C@H](NC(=O)[C@H](CC(C)C)NC(=O)N(Cc1ccccc1)C[C@@H](O)[C@@H](Cc1ccccc1)NC(=O)OC(C)(C)C)C(C)C")
0.8

(1) COC(=O)[C@H](NC(=O)[C@@H](CC(C)C)NC(=O)N(Cc1ccccc1)C[C@@H](O)[C@@H](Cc1ccccc1)NC(=O)[C@@H](Cc1ccccc1)NC(=O)OC(C)(C)C)C(C)C
(2) COC(=O)[C@@H](CC(C)C)NC(=O)N(Cc1ccccc1)C[C@@H](O)[C@@H](Cc1ccccc1)NC(=O)OC(C)(C)C
Quick one: lower IC50, 1 or 2 ? Respond using the label that marks the chosen record.
1

(P) COC(=O)[C@H](NC(=O)[C@@H](C)NC(=O)N(Cc1ccccc1)C[C@@H](O)[C@@H](Cc1ccccc1)NC(=O)OC(C)(C)C)C(C)C
(Q) COC(=O)[C@H](NC(=O)[C@@H](Cc1ccccc1)NC(=O)N(Cc1ccccc1)C[C@@H](O)[C@@H](Cc1ccccc1)NC(=O)OC(C)(C)C)C(C)C
Endpoint returns the identifier whose IC50 is numerically larger, either P or Q . Respond using the label that marks the chosen record.
Q

(1) COC(=O)[C@@H](CC(C)C)NC(=O)[C@@H](CC(C)C)NC(=O)N(Cc1ccccc1)C[C@H](O)[C@@H](Cc1ccccc1)NC(=O)OC(C)(C)C
(2) COC(=O)[C@@H](NC(=O)[C@@H](CC(C)C)NC(=O)N(Cc1ccccc1)C[C@@H](O)[C@H](Cc1ccccc1)NC(=O)OC(C)(C)C)C(C)C
Endpoint returns the identifier whose IC50 is numerically larger, either 1 or 2 . Respond using the label that marks the chosen record.
1
(1: 8 µM, 2: 0.8 µM)

(a) COC(=O)[C@H](NC(=O)[C@H](NC(=O)N(Cc1ccccc1)C[C@@H](O)[C@@H](Cc1ccccc1)NC(=O)OC(C)(C)C)C(C)C)C(C)C
(b) COC(=O)[C@H](NC(=O)[C@@H](CC(C)C)NC(=O)N(Cc1ccccc1)C[C@@H](O)[C@@H](Cc1ccccc1)NC(=O)[C@@H](CC(C)C)NC(=O)OC(C)(C)C)C(C)C
Endpoint returns the identifier whose IC50 is numerically larger, either a or b . Respond using the label that marks the chosen record.
a

(1) COC(=O)[C@H](NC(=O)[C@@H](CC(C)C)NC(=O)N(Cc1ccccc1)C[C@@H](O)[C@@H](Cc1ccccc1)NC(=O)OC(C)(C)C)C(C)C
(2) COC(=O)[C@H](NC(=O)[C@@H](CC(C)C)NC(=O)N(Cc1ccccc1)C[C@@H](O)[C@H](Cc1ccccc1)NC(=O)OC(C)(C)C)C(C)C
(3) COC(=O)[C@H](NC(=O)[C@@H](CC(C)C)NC(=O)N(CC(C)C)C[C@@H](O)[C@@H](Cc1ccccc1)NC(=O)OC(C)(C)C)C(C)C
Arrange these compounds by their IC50, starting with the largest number. // respond by listing labels in the order requested
3, 1, 2

(1) COC(=O)[C@@H](NC(=O)[C@H](CC(C)C)NC(=O)N(Cc1ccccc1)C[C@@H](O)[C@@H](Cc1ccccc1)NC(=O)OC(C)(C)C)C(C)C
(2) COC(=O)[C@H](NC(=O)[C@@H](CC(C)C)NC(=O)N(Cc1ccccc1)C[C@@H](O)[C@@H](Cc1ccccc1)NC(=O)[C@H](NC(=O)OC(C)(C)C)C(C)C)C(C)C
Endpoint returns the identifier whose IC50 is numerically larger, either 1 or 2 . Respond using the label that marks the chosen record.
2
(2: 7 µM, 1: 0.4 µM)

(a) COC(=O)[C@@H](Cc1ccccc1)NC(=O)[C@@H](CC(C)C)NC(=O)N(Cc1ccccc1)C[C@@H](O)[C@@H](Cc1ccccc1)NC(=O)OC(C)(C)C
(b) COC(=O)[C@@H](C)NC(=O)[C@@H](CC(C)C)NC(=O)N(Cc1ccccc1)C[C@@H](O)[C@@H](Cc1ccccc1)NC(=O)OC(C)(C)C
Quick one: lower IC50, a or b ? Respond using the label that marks the chosen record.
a
